test system: DU-145; assay: NCI tumour cell line growth inhibition, 48 h
The source made the active and inactive calls. Cut-off read from the data, not from the text of the source: active = GI50 up to about 1.1 µM and inactive = higher.
measurement_kind: GI50

// GI50 value for `O=C(O)CN(CC(=O)O)Cc1ccn(-c2cccc(-n3ccc(CN(CC(=O)O)CC(=O)O)n3)n2)n1` : > 100 µM (inactive)

# GI50 (molecule: `O=C1/C(=C/c2ccc([N+](=O)[O-])cc2)CCCc2ccccc21` ) is > 100 µM (inactive)

Item: `CCNCCCNc1c2ccccc2nc2ccccc12` | GI50: 0.525 µM (active)

For CCCCCC(/C=N/Nc1ccccc1)C(O)(C(F)(F)F)C(F)(F)F (stereo unspecified) the molecule record lists GI50 as > 100 µM (inactive)

Per the records, this molecule ( `N#C/C(C(=O)Nc1ccc(Cl)cc1)=C(/N)N1CCOCC1` ) has GI50 equal to 94 µM (inactive)

// sample C=C(Cl)C(Cl)(CBr)CCC(Cl)C(C)C (stereo unspecified) , its GI50 was 1.37 µM (inactive)

// `CC(=O)c1sc2n(C)c(=O)c3ccccc3[n+]2c1C` : GI50 value = > 100 µM (inactive)

Lab note: `CC(C)(C)c1ccc(O)c(C[N+](C)(C)C)c1` gave GI50 of > 100 µM (inactive)

The reported value for `CC(=O)N1N=C(N)CC1=O` in terms of GI50 is > 100 µM (inactive)

Recorded result, COc1cc(C2C3=C(COC3=O)OC(C)(C)Oc3cc4c(cc32)OCO4)cc(OC)c1OC (stereo unspecified) , GI50: 0.34 µM (active)

Note: attention shifts to another entry.
For this molecule ( `NNC(=O)c1nnn(N)c1S` ), measured GI50 is > 100 µM (inactive)

---

test system: SK-MEL-5; experiment: NCI tumour cell line growth inhibition, 48 h
The source made the active and inactive calls. Rule as the data show it: active = GI50 up to about 1.1 µM and inactive = higher.
Answer with one of the outcomes given here: active, inactive

Illustrative cases are given below, each with its answer.
Name the outcome recorded for CN1C(=O)CCC2[C@@H]3CC=C4C[C@@H](O)CC[C@]4(C)C3CC[C@@]21C (stereo partly specified) in the assay.
inactive

Kindly provide the recorded test outcome for the following compound: `Cn1nc(-c2ccccc2)c(C(=O)/C=C/c2ccc(F)cc2)c(N2CCOCC2)c1=O`
inactive

Query: recorded result category for Oc1ccc(CCc2cc(O)cc(O)c2)cc1 [DIHYDRORESVERATROL] in this test
inactive

Further cases:
Hey, what did the test say about Cc1ccc(S(=O)OC23CC4CC(CC(C4)C2)C3)cc1 (stereo unspecified) ?
inactive

Outcome? `O=C1Nc2ccccc2S/C1=C\c1cccc(C(F)(F)F)c1`
inactive

Please state the recorded outcome for this compound: N#CC1C=Cc2ccccc2N1C(=O)Oc1ccccc1 (stereo unspecified)
inactive

Hi, sorry to bother you, what did the test record for `[O-]c1on[n+]2c1c(Nc1ccc(Cl)cc1)nc1ccccc12` ?
inactive

Write down the call the test reported for this compound. Item: COc1ccc2cc(C(C)C(=O)N3C(=O)OCC3(C)C)ccc2c1 (stereo unspecified)
inactive

Per the records of this test, what outcome belongs to CCCCCC(/C=N/Nc1ccccc1)C(O)(C(F)(F)F)C(F)(F)F (stereo unspecified) ?
inactive

Kindly provide the recorded test outcome for the following compound: `COc1cc(/C=C/c2ccccn2)cc(OC)c1OC`
inactive

What outcome does the record of this test show for CCOC(=O)C1=C(C)NC(=S)NC1c1ccccc1 (stereo unspecified) ?
inactive

What was the test verdict on `CCOC(=O)/C=C\C(C#N)(C#N)/N=C/c1ccsc1` ?
inactive

Could you please tell me the result logged for O=C(NN1C(=O)CSC1c1ccc(Cl)c(Cl)c1)c1ccncc1 (stereo unspecified) in this assay?
inactive

Fill in: this test's call for `COc1ccc2nc(-c3ccc(O)cc3)sc2c1` is ___
inactive

Which outcome did this test record for the compound `COc1cccc(-c2nc(O)c3ccccc3n2)c1` ?
inactive

Kindly provide the recorded test outcome for the following compound: `CC1(C)C(=O)N(CCCCCCN2C(=O)C(C)(C)c3ccccc32)c2ccccc21`
inactive

Could you please tell me the result logged for `N#C/C(C(=O)Nc1ccc(Cl)cc1)=C(/N)N1CCOCC1` in this assay?
inactive

Look up the recorded call for Nc1nc(Cl)c(N)c(NCC2(CO)CCC(CCc3ccccc3)C2)n1 (stereo unspecified) in this test.
active

Tell me the assay call for `NNC(=O)CSc1nnc(CCCCCCCCc2nnc(SCC(=O)NN)o2)o1` please.
inactive

What did the test return for CC(C)(C)OC(=O)NC(Cc1ccc(OCc2ccccc2)cn1)C(=O)NCc1ccccc1 (stereo unspecified) ?
inactive
